B1: LINE1-mini (parent)
chain: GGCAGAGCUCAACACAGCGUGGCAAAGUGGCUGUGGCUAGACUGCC

Variants of: B1
Assay: self-cleavage, relative activity (ratio to wild type); higher = more cleavage; in vitro, sequencing; the parent is a self-cleaving ribozyme
As shown below, each of these variants has a reported self-cleavage value.
# print the numeric value only

{"columns": ["mutations", "self-cleavage"],
 "data": [
  ["C31G U32C", 0.08]
]}

Measured self-cleavage, G22A U38C : 0.68

Looking up G33C G40C , I see its self-cleavage listed as 0.07

Query A4U C8A yields self-cleavage of 0.23

variant C18G G30C , self-cleavage observed: 1

For this variant ( G17U C23U ), measured self-cleavage is 0.18
